- TARGET DESC: Dimer of Gag-Pol polyprotein [501-599,Q508K,L534I,L564I,C568A,C596A] (Human immunodeficiency virus 1, UniProt P03367, C568A/C596A/L534I/L564I/Q508K)
- Construct: 501-599
- PROTOCOL SUMMARY: Protease Inhibition Assay
- STATED CONDITIONS: pH 6.4; 25 °C
Reported pKi values follow for various compounds
Scale: negative log10 of molar concentration, which is what pKi denotes.

COMPOUND: C=CCC1(N(CC(C)C)C[C@@H](O)[C@H](Cc2ccccc2)NC(=O)O[C@H]2CO[C@H]3OCC[C@H]32)C(=O)Nc2ccccc21 (some centres undefined)
pKi: 8.35

Would you kindly share the measured pKi for COc1ccc2c(c1)C(C)(N(CC(C)C)C[C@@H](O)[C@H](Cc1ccccc1)NC(=O)O[C@H]1CO[C@H]3OCC[C@H]31)C(=O)N2 (some centres undefined) ? 6.94

----------
Reported Ki values follow for various compounds
- TARGET DESC: Dimer of Gag-Pol polyprotein [501-599,Q508K,L534I,L564I,C568A,C596A] (Human immunodeficiency virus 1, UniProt P03367, C568A/C596A/L534I/L564I/Q508K)
- Construct: 501-599
- PROTOCOL SUMMARY: Protease Inhibition Assay
- STATED CONDITIONS: pH 6.4; 25 °C
Dear colleague, please return just the value in nM, with no unit written.

COMPOUND: CC(C)CN(C[C@@H](O)[C@H](Cc1ccccc1)NC(=O)O[C@H]1CO[C@H]2OCC[C@H]21)C1(C)C(=O)N(C)c2ccccc21 (stereo partly drawn)
RESULT TYPE: Ki
READING UNIT: nM
VALUE: 51

Now look at this one.
Would you kindly share the measured Ki for CC(C)CN(C[C@@H](O)[C@H](Cc1ccccc1)NC(=O)O[C@H]1CO[C@H]2OCC[C@H]21)C1(C)C(=O)Nc2ccccc21 (stereo partly drawn) ? 4.5
